Biological target: UniProtKB P55055
Assay: Agonist activity at human LXR-beta expressed in African green monkey CV1 cells measured after 18 to 20 hrs by luciferase reporter gene assay
Type: cell-based, CV-1
The following compounds are listed with their measured EC50 values.
Output spec: scalar in µM, unitless text.

- smiles.representation: "CC(C)(O)c1cn(-c2ccc(-c3ccc(CO)c(S(C)(=O)=O)c3)cc2)c(C(C)(C)c2ccccc2Cl)n1"
  unit.abbrev: "µM"
  value.measured: 0.17

Q. Entry `CC(C)(O)c1cn(-c2ccc(-c3cc(F)c(CO)c(S(C)(=O)=O)c3)cc2F)c(C(C)(C)c2c(F)cccc2Cl)n1` , system UniProtKB P55055: what EC50 was measured?
A. 0.02

---

Molecular target: Oxysterols receptor LXR-beta (Homo sapiens) (UniProt P55055)
Sequence (P55055 whole entry): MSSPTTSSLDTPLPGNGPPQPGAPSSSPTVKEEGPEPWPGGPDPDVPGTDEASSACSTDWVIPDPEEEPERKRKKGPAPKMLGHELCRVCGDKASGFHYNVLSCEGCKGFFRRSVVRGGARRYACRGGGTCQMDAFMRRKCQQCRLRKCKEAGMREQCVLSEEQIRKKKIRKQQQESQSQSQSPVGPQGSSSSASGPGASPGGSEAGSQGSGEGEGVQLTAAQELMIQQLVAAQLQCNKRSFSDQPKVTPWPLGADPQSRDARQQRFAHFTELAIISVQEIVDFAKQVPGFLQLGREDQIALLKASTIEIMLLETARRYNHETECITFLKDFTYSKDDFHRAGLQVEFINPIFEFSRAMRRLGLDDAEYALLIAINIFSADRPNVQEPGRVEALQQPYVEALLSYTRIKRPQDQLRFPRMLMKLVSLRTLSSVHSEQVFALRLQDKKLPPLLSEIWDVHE
Test: Agonist activity at LXR-beta in human whole blood assessed as ABCA1 gene induction by measuring ABCA1 mRNA level after 4 hrs by SYBR-Green dye-based Q-PCR analysis relative to pan agonist 2-(4-(5-(5-cyano-1-(2,4-difluorobenzyl)-6-oxo-4-(trifluoromethyl)-1,6-dihydropyridin-2-yl)thiophen-2-yl)-3-methylphenyl)acetic acid
Format: tissue-based
Decide by Efficacy: equal to or exceeding 30% means true (1), less means false (0).

Study these solved cases before continuing.
- compound: "CC(C)(O)c1cn(-c2ccc(-c3cccc(S(C)(=O)=O)c3)cc2)c(C(C)(C)c2c(Cl)cccc2Cl)n1"
  assigned.label: "true (1)"
- compound: "CC(C)(O)c1cn(-c2ccc(-c3cc(F)c(CO)c(S(C)(=O)=O)c3)cc2F)c(C(C)(C)c2c(Cl)cccc2Cl)n1"
  assigned.label: "false (0)"
- compound: "CC(C)(O)c1cn(-c2ccc(-c3cc(F)c(CO)c(S(C)(=O)=O)c3)cc2)c(Cc2c(Cl)cccc2Cl)n1"
  assigned.label: "true (1)"
- compound: "CC(O)c1ccc(-c2ccc(-n3cc(C(C)(C)O)nc3C(C)(C)c3ccccc3Cl)cc2)cc1S(C)(=O)=O (stereo not given)"
  assigned.label: "true (1)"
- compound: "CC(C)(O)c1cn(-c2ccc(-c3cc(F)c(CO)c(S(C)(=O)=O)c3)cc2)c(C(C)(C)c2cccc(F)c2Cl)n1"
  assigned.label: "true (1)"

Q. Given the entry `CC(C)(O)c1cn(-c2ccc(-c3cc(F)c(CO)c(S(C)(=O)=O)c3)cc2)c(C(C)(C)c2ccccc2F)n1` , answer whether its Efficacy meets or surpasses 30%.
A. false (0)

Q. Entry CC(c1c(Cl)cccc1Cl)c1nc(C(C)(C)O)cn1-c1ccc(-c2cc(F)c(CO)c(S(C)(=O)=O)c2)cc1F (stereo not given) : is its Efficacy no less than 30%?
A. false (0)

Q. Please indicate if the recorded Efficacy for `CC(C)(O)c1cn(-c2ccc(-c3cc(F)c(CO)c(S(C)(=O)=O)c3)cc2)c(C(C)(C)c2c(Cl)cccc2Cl)n1` meets or exceeds 30%.
A. true (1)

Q. Identify whether the reported Efficacy of the following compound is 30% or greater: `CC(C)(O)c1cn(-c2ccc(-c3cc(F)c(CO)c(S(C)(=O)=O)c3)cc2F)c(C(C)(C)c2ccccc2Cl)n1`
A. true (1)

Q. Threshold query (Efficacy >= 30%) on `CC(C)(O)c1cn(-c2ccc(-c3ccc(CO)c(S(C)(=O)=O)c3)cc2)c(C(C)(C)c2ccccc2Cl)n1`
A. true (1)

Q. Textbook exercise: given the entry `CC(C)(O)c1cn(-c2ccc(-c3ccc(CO)c(S(C)(=O)=O)c3)cc2)c(Cc2ccccc2Cl)n1` , state whether its Efficacy is greater than or equal to 30%.
A. true (1)

Data credit: ChEMBL document CHEMBL3867488
